All figures here come from ChEMBL document CHEMBL1149450.

So I've got a bunch of compounds here, and I need their GI50 values.
Test system: PANC-1
PROTOCOL_SUMMARY: Inhibition of growth against PANC1 cells after 72 hrs exposure
Format: functional
ASSAY_CONTEXT: Homo sapiens, PANC-1, 72 h
The reply should be a number in µM, with the unit left off.

Determine its reported GI50: COc1ccnc2c1cc1cc(-c3ccnc(N)n3)nc(NCc3ccccc3)n12
25.2

Determine its reported GI50: Nc1nccc(-c2cc3c(-c4ccnc(N)n4)c4c(O)ccnc4n3c(N)n2)n1
26.9

Determine its reported GI50: Nc1nccc(-c2cc3c(-c4ccnc(N)n4)c4c(O)ccnc4n3c(NCc3ccccc3)n2)n1
21.7

Determine its reported GI50: Nc1nccc(-c2c3c(O)ccnc3n3c(N)nccc23)n1 [VARIOLIN B]
1.68

Determine its reported GI50: COc1ccnc2c1c(-c1ccnc(N)n1)c1cc(-c3ccnc(N)n3)nc(NCc3ccccc3)n12
19.9

Determine its reported GI50: COc1ccnc2c1c(-c1ccnc(N)n1)c1cc(C(=O)NCCN(C)C)nc(NCc3ccccc3)n12
3.97

Determine its reported GI50: Nc1nccc(-c2cc3cc4c(O)ccnc4n3c(N)n2)n1 [7-ISOVARIOLIN B]
21.8

Determine its reported GI50: Nc1nccc(-c2cc3cc4c(O)ccnc4n3c(NCc3ccccc3)n2)n1
26.1

Determine its reported GI50: CN(C)Cc1cnc2c(c1O)c(-c1ccnc(N)n1)c1cc(-c3ccnc(N)n3)nc(NCc3ccccc3)n12
17.7

---

So I've got a bunch of molecules here, and I need their GI50 values.
Test system: LNCaP
PROTOCOL_SUMMARY: Inhibition of growth against LnCAP cells after 72 hrs exposure
Type: functional
ASSAY_CONTEXT: Homo sapiens
The reply should be a number in µM, with the unit left off.

Report GI50 on LNCaP for this entry: Nc1nccc(-c2cc3cc4c(O)ccnc4n3c(N)n2)n1
5.28

Report GI50 on LNCaP for this entry: COc1ccnc2c1c(-c1ccnc(N)n1)c1cc(C(=O)NCCN(C)C)nc(NCc3ccccc3)n12
2.37

Report GI50 on LNCaP for this entry: Nc1nccc(-c2cc3cc4c(O)ccnc4n3c(NCc3ccccc3)n2)n1
12.9

Report GI50 on LNCaP for this entry: Nc1nccc(-c2cc3c(-c4ccnc(N)n4)c4c(O)ccnc4n3c(N)n2)n1
26.9

Report GI50 on LNCaP for this entry: Nc1nccc(-c2c3c(O)ccnc3n3c(N)nccc23)n1
0.05

Report GI50 on LNCaP for this entry: CN(C)Cc1cnc2c(c1O)c(-c1ccnc(N)n1)c1cc(-c3ccnc(N)n3)nc(NCc3ccccc3)n12
9.13

Report GI50 on LNCaP for this entry: Nc1nccc(-c2cc3c(-c4ccnc(N)n4)c4c(O)ccnc4n3c(NCc3ccccc3)n2)n1
21.7

Report GI50 on LNCaP for this entry: COc1ccnc2c1cc1cc(-c3ccnc(N)n3)nc(NCc3ccccc3)n12
16

Report GI50 on LNCaP for this entry: COc1ccnc2c1c(-c1ccnc(N)n1)c1cc(-c3ccnc(N)n3)nc(NCc3ccccc3)n12
18.6

---

So I've got a bunch of compounds here, and I need their GI50 values.
Test system: HeLa
PROTOCOL_SUMMARY: Inhibition of growth against HeLa-Apl cells after 72 hrs exposure
Assay type: functional
ASSAY_CONTEXT: Homo sapiens
The reply should be a number in µM, with the unit left off.

Determine its reported GI50: Nc1nccc(-c2cc3cc4c(O)ccnc4n3c(N)n2)n1
8.86

Determine its reported GI50: COc1ccnc2c1c(-c1ccnc(N)n1)c1cc(-c3ccnc(N)n3)nc(NCc3ccccc3)n12
3.68

Determine its reported GI50: Nc1nccc(-c2cc3c(-c4ccnc(N)n4)c4c(O)ccnc4n3c(N)n2)n1
26.9

Determine its reported GI50: CN(C)Cc1cnc2c(c1O)c(-c1ccnc(N)n1)c1cc(-c3ccnc(N)n3)nc(NCc3ccccc3)n12
3.88

---

So I've got a bunch of compounds here, and I need their GI50 values.
Test system: SK-BR-3
PROTOCOL_SUMMARY: Inhibition of growth against SKBR3 cells after 72 hrs exposure
Assay type: functional
ASSAY_CONTEXT: Homo sapiens, SK-BR-3, 72 h
The reply should be a number in µM, with the unit left off.

Determine its reported GI50: COc1ccnc2c1cc1cc(-c3ccnc(N)n3)nc(NCc3ccccc3)n12
25.2

Determine its reported GI50: Nc1nccc(-c2cc3c(-c4ccnc(N)n4)c4c(O)ccnc4n3c(NCc3ccccc3)n2)n1
21.7

Determine its reported GI50: Nc1nccc(-c2c3c(O)ccnc3n3c(N)nccc23)n1
0.85

Determine its reported GI50: COc1ccnc2c1c(-c1ccnc(N)n1)c1cc(C(=O)NCCN(C)C)nc(NCc3ccccc3)n12
2.13

Determine its reported GI50: Nc1nccc(-c2cc3cc4c(O)ccnc4n3c(N)n2)n1
31.9

Determine its reported GI50: Nc1nccc(-c2cc3c(-c4ccnc(N)n4)c4c(O)ccnc4n3c(N)n2)n1
14.8

Determine its reported GI50: Nc1nccc(-c2cc3cc4c(O)ccnc4n3c(NCc3ccccc3)n2)n1
13.1

Determine its reported GI50: CN(C)Cc1cnc2c(c1O)c(-c1ccnc(N)n1)c1cc(-c3ccnc(N)n3)nc(NCc3ccccc3)n12
2.79

Determine its reported GI50: COc1ccnc2c1c(-c1ccnc(N)n1)c1cc(-c3ccnc(N)n3)nc(NCc3ccccc3)n12
8.24
